Data origin, for the record: the supplement of paper PMC6897291

# key: entry, value: growth inhibition by drug alone
tested on: RIVA; assay: growth inhibition by drug alone (1 - RLU/untreated control) (fraction); higher = stronger inhibition; details: 10 nM; time (day): 6; 177Lu-lilotomab satetraxetan 0 ug/ml
readout.kind: growth inhibition by drug alone

{"compound": "CC(C)(C)c1cc(NC(=O)Nc2ccc(-c3cn4c(n3)sc3cc(OCCN5CCOCC5)ccc34)cc2)no1", "experimental.result": -0.0533}
{"compound": "CC[C@H](Nc1ncnc2[nH]cnc12)c1nc2cccc(F)c2c(=O)n1-c1ccccc1", "experimental.result": -0.255}
{"compound": "NC(=O)Nc1cc(-c2cccc(F)c2)sc1C(=O)N[C@H]1CCCNC1", "experimental.result": -0.23}
{"compound": "CC1(C)CNc2cc(NC(=O)c3cccnc3NCc3ccncc3)ccc21 [Motesanib Diphosphate]", "experimental.result": -0.584}
{"compound": "Nc1[nH]nc2nnc(-c3c(-c4ccccc4)nn4ccccc34)cc12", "experimental.result": -0.13}
{"compound": "CC(C)[C@H](C(=O)Nc1ccc(C(=O)NO)cc1)c1ccccc1", "experimental.result": -0.103}
{"compound": "O=c1[nH]cc(F)c(=O)[nH]1", "experimental.result": -0.72}
{"compound": "N#CC1(c2ccc(NC(=O)c3cccnc3NCc3ccncc3)cc2)CCCC1", "experimental.result": -0.253}
{"compound": "O=NN(CCCl)C(=O)NC1CCCCC1", "experimental.result": -0.324}
{"compound": "COc1ccccc1OCC(O)CN1CCN(CC(=O)Nc2c(C)cccc2C)CC1 (stereo not given) [Ranolazine (Ranexa)]", "experimental.result": -0.328}
